Cited source: patent US9751881B2

# TARGET OR SYSTEM: hROMK (hKir1.1) (Homo sapiens (Human))
# Sequence (P48048 whole entry): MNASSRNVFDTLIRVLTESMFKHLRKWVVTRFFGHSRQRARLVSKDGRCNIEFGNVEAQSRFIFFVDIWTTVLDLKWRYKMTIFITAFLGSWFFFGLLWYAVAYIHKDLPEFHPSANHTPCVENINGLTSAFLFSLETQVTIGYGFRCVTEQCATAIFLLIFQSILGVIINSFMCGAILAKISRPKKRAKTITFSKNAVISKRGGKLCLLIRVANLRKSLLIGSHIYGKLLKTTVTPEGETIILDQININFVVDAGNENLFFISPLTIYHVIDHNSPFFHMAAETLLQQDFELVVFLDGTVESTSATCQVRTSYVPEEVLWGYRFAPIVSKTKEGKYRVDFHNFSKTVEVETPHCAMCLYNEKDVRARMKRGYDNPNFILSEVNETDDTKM
# TEST METHOD NOTES: Thallium Flux Assay (ROMK channel functional thallium flux, FLIPR-Tetra)
# Type: cell-based
# EXPERIMENTAL CONDITIONS: HEK293 cells stably expressing hROMK (hKir1.1); unit not given in Table 4 (IC50 potencies less than 1 μM); read-out: ROMK TI IC50
Where a name gives a salt, the structure may show the parent alone.
READOUT: IC50 (nM)

>>> print(df.to_string())
                                   molecule                        target_or_system  measurement
0  Cc1c(CCN2CCC3(CC2)CC(=O)N(c2ccc(C#N)cn2)C3)ccc2c1COC2=O  hROMK (hKir1.1) (Homo sapiens (Human))           12
1  Cc1c([C@@H](O)CN2CCC3(CCN(c4ccc(S(C)(=O)=O)cn4)CC3)C2)ccc2c1COC2=O [Example 64, hydrochloride]  hROMK (hKir1.1) (Homo sapiens (Human))          272
2  Cc1cc2c(cc1C(O)CN1CCC3(CC1)CCN(c1ccc(C#N)cn1)C3)COC2=O (single isomer, unassigned) [Example 24A]  hROMK (hKir1.1) (Homo sapiens (Human))         17.6
3  CCS(=O)(=O)c1ccc(N2CCC3(CCN(C[C@H](O)c4ccc5c(c4C)COC5=O)CC3)C2)cn1  hROMK (hKir1.1) (Homo sapiens (Human))          271

(A) Cc1c(C(O)CN2CCC3(CC2)CCN(c2ncc(C#N)cc2F)CC3)ccc2c1COC2=O (stereo not shown)
(B) Cc1c([C@@H](N)CN2CCC3(CC2)CCN(c2ccc(C#N)cn2)C3)ccc2c1COC2=O
(C) Cc1c([C@@H](O)CN2CCC3(CC2)CN(c2ccc(S(C)(=O)=O)cn2)C(=O)O3)ccc2c1COC2=O
Rank the items in ascending order with respect to IC50. // list labels; follow requested order
B, C, A
(B: 14.1 nM, C: 208 nM, A: 473 nM)

###

# TARGET OR SYSTEM: UniProt P48048
# TEST METHOD NOTES: Thallium Flux Assay (ROMK channel functional thallium flux, FLIPR-Tetra)
# Type: cell-based
# EXPERIMENTAL CONDITIONS: HEK293 cells stably expressing hROMK (hKir1.1); unit not given in Table 4 (IC50 potencies less than 1 μM); read-out: ROMK TI IC50
Counter-ions that a name gives are not always drawn.
READOUT: IC50 (µM)

Worked cases, answers included:
In [3]: df
Out[3]:
                                   compound  unit_abbrev  measurement
0  COc1cc(N2CC3(CCN(C[C@H](O)c4ccc5c(c4C)COC5=O)CC3)OCC2=O)ncc1C#N           µM       0.0167
1  Cc1c([C@@H](O)CN2CCC3(CC2)CC(=O)N(c2ccc(C#N)cc2)C3)ccc2c1COC2=O           µM        0.015
2  Cc1c([C@@H](O)CN2CCC3(CC2)CN(c2ccc(C#N)cn2)CCO3)ccc2c1COC2=O           µM       0.0396

(1) CCS(=O)(=O)c1cnc(N2CC3(CCN(C[C@H](O)c4ccc5c(c4C)COC5=O)CC3)OC2=O)cn1
(2) Cc1c([C@@H](O)CN2CCC3(CC2)CC(=O)N(c2ccc(S(=O)(=O)C4CC4)cc2)C3)ccc2c1COC2=O [Example 70, hydrochloride]
(3) COc1cc(N2CC3(CCN(C[C@H](O)c4ccc5c(c4C)COC5=O)CC3)CC2=O)ccc1C#N
(4) Cc1nc(N2CCC3(CCN(C[C@H](O)c4ccc5c(c4C)COC5=O)CC3)C2)ccc1S(C)(=O)=O
(5) Cc1c([C@@H](O)CN2CCC3(CC2)CC(=O)N(c2ccc(C#N)cn2)C3)ccc2c1COC2=O
Rank the items in ascending order with respect to IC50. // list labels; follow requested order
5, 3, 4, 1, 2
(5: 0.0105 µM, 3: 0.051 µM, 4: 0.0757 µM, 1: 0.148 µM, 2: 0.248 µM)

###

# TARGET OR SYSTEM: hROMK (hKir1.1) (Homo sapiens (Human))
# TEST METHOD NOTES: Thallium Flux Assay (ROMK channel functional thallium flux, FLIPR-Tetra)
# Type: cell-based
# EXPERIMENTAL CONDITIONS: HEK293 cells stably expressing hROMK (hKir1.1); unit not given in Table 4 (IC50 potencies less than 1 μM); read-out: ROMK TI IC50
Structures can show the parent of a compound that is named as a salt.
READOUT: IC50 (nM)

Worked cases, answers included:
>>> df
                                   compound  readout  unit_abbrev  measurement
0  C[C@H]1Cc2cc(C(O)CN3CCC4(CC3)CN(c3ccc(C#N)cn3)C4)ccc2C(=O)O1 (some centres unmarked) [Example 52A]     IC50           nM         48.7
1  Cc1c([C@@H](O)CN2CCC3(CC2)CC(=O)N(c2ccc(S(C)(=O)=O)cn2)C3)ccc2c1COC2=O     IC50           nM         53.4
2  CC1Cc2cc(C(O)CN3CCC4(CC3)CCN(c3ccc(C#N)cn3)C4)ccc2C(=O)O1 (centres unmarked)     IC50           nM         50.1
3  Cc1c([C@@H](O)CN2CCC3(CC2)CCN(c2cncc(C#N)c2)C3)ccc2c1COC2=O     IC50           nM           33
4  Cc1c([C@@H](O)CN2CCC3(CC2)CCN(c2nnc(S(C)(=O)=O)s2)C3=O)ccc2c1COC2=O [Example 76, hydrochloride]     IC50           nM          100
5  Cc1c([C@@H](O)CN2CCC3(CC2)CCN(c2ncc(S(C)(=O)=O)s2)C3)ccc2c1COC2=O     IC50           nM           60

(I) Cc1c(CCN2CCC3(CC2)CCN(c2ccc(-c4ncon4)cn2)C3)ccc2c1COC2=O
(II) Cc1c([C@@H](O)CN2CCC3(CC2)CCN(c2cnc(C#N)cn2)C3)ccc2c1COC2=O
(III) Cc1c([C@@H](O)CN2CCC3(CC2)CC(=O)N(c2ccc(-n4cnnn4)cn2)C3)ccc2c1COC2=O
Task field, ranking: reported IC50, descending order. // list labels; follow requested order
I, III, II

###

# TARGET OR SYSTEM: hROMK (hKir1.1) (Homo sapiens (Human))
# TEST METHOD NOTES: Thallium Flux Assay (ROMK channel functional thallium flux, FLIPR-Tetra)
# Type: cell-based
# EXPERIMENTAL CONDITIONS: HEK293 cells stably expressing hROMK (hKir1.1); unit not given in Table 4 (IC50 potencies less than 1 μM); read-out: ROMK TI IC50
pIC50: −log10 of the molar value. Structures can show the parent of a compound that is named as a salt.
READOUT: pIC50

                                   molecule  readout  measurement
0  Cc1c([C@@H](O)CN2CCC3(CC2)CN(c2ccc(S(C)(=O)=O)nn2)C3)ccc2c1COC2=O [Example 48]    pIC50         7.15

(1) Cc1c([C@@H](O)CN2CCC3(CC2)CN(c2ccc(S(C)(=O)=O)cc2)C(=O)O3)ccc2c1COC2=O [Example 94]
(2) Cc1c([C@@H](O)CN2CCC3(CC2)CN(c2ccc(S(C)(=O)=O)nc2)C3)ccc2c1COC2=O [Example 46]
(3) COc1cc(N2CC3(CCN(C[C@H](O)c4ccc5c(c4C)COC5=O)CC3)C2)ncc1C#N [Example 50]
Rank the items in ascending order with respect to pIC50. // list labels; follow requested order
2, 1, 3
(2: 6.59, 1: 6.80, 3: 7.37)

(I) Cc1c([C@@H](O)CN2CCC3(CC2)CC(=O)N(c2ccc(-n4cnnn4)c(F)c2)C3)ccc2c1COC2=O [Example 69, hydrochloride]
(II) COc1cc(C#N)ccc1N1CCC2(CCN(C[C@H](O)c3ccc4c(c3C)COC4=O)CC2)C1 [Example 86]
From the items above, decide which of I and II has the lower pIC50 reading. // respond with label for picked entry
I
(I: 6.76, II: 7.30)

###

# TARGET OR SYSTEM: hROMK (hKir1.1) (Homo sapiens (Human))
# TEST METHOD NOTES: Thallium Flux Assay (ROMK channel functional thallium flux, FLIPR-Tetra)
# Assay type: cell-based
# EXPERIMENTAL CONDITIONS: HEK293 cells stably expressing hROMK (hKir1.1); unit not given in Table 4 (IC50 potencies less than 1 μM); read-out: ROMK TI IC50
pIC50: −log10 of the molar value. Structures can show the parent of a compound that is named as a salt.
READOUT: pIC50

                                   compound  readout  measurement
0  Cc1c([C@@H](O)CN2CCC3(CCN(c4ccc(C#N)cn4)CC3)C2)ccc2c1COC2=O    pIC50         7.72
1  Cc1cc(C#N)c(N2CCC3(CCN(CC(O)c4ccc5c(c4C)COC5=O)CC3)CC2)nn1 (centres unmarked)    pIC50         6.79
2  Cc1c([C@@H](O)CN2CCC3(CC2)CCN(c2nnc(S(C)(=O)=O)s2)C3)ccc2c1COC2=O [Example 62, hydrochloride]    pIC50         6.68
3  CN[C@@H](CN1CCC2(CC1)CCN(c1ccc(C#N)cn1)C2)c1ccc2c(c1C)COC2=O    pIC50         7.21
4  Cc1c([C@@H](O)CN2CCC3(CC2)CCN(c2ccc(C#N)cn2)C3)ccc2c1COC2=O    pIC50         8.00

(1) Cc1c([C@@H](O)CN2CCC3(CC2)CC(=O)N(c2ncc(S(C)(=O)=O)s2)C3)ccc2c1COC2=O
(2) Cc1c([C@@H](O)CN2CCC3(CC2)CCN(c2ccc(S(C)(=O)=O)cc2)C3)ccc2c1COC2=O
From the items above, decide which of 1 and 2 has the lower pIC50 reading. // respond with label for picked entry
1
(1: 7.06, 2: 7.38)
